Across several publications, the following pIC50 results were reported for Tyrosine-protein kinase JAK2 (Homo sapiens, UniProt O60674).
pIC50: −log10 of the molar value.

Problem: Fill in: pIC50 of Cn1cc(-c2cc3nccn3c(-c3cnn(C(CC#N)c4ccccn4)c3)n2)cn1 (centres unmarked) is ___
Result: 7.00 to 8.00

Problem: Next compound up: `Nc1cc2ccc1-c1ccnc(n1)Nc1ccc(OCC3Cc4ccccc4C3)c(c1)COCCCCNC2=O`
Result: 5.00 to 6.00

Problem: Next compound up: `CCOC(=O)Cn1cc(Nc2ncc3ccn(CC4CCSCC4)c3n2)cn1`
Result: > 7.00

Problem: Next compound up: `CC(C)(O)Cc1nc2cc(Nc3ncc(Cl)c(NC4CCN(c5ccc(C#N)cn5)CC4)n3)ccn2n1`
Result: 8.00

Problem: Next compound up: `CCC(=O)c1cnc(Nc2cc(C(N)=O)ccn2)cc1Nc1cccc(-c2ncn(C)n2)c1OC`
Result: ≤ 6.30

Problem: Next compound up: CCOC(=O)CCC(=O)Nc1nn(C(CC#N)C2CCCC2)cc1-c1ncnc2[nH]ccc12 (centres unmarked)
Result: > 7.70

Problem: Next compound up: `N#CCC1(O)CCN(n2cnc3cnc4[nH]ccc4c32)CC1`
Result: 8.22

Problem: Next compound up: `N#CCC1(n2cc(-c3c(F)cnc4[nH]ccc34)cn2)CN(C2CCN(C(=O)c3cc(C(F)(F)F)ncc3Cl)CC2)C1`
Result: 7.30 to 8.00
